# test.target: Chaetomium thermophilum PCNA (proliferating cell nuclear antigen) (Chaetomium thermophilum)
# measurement.description: ITC; 420 uM Ct PolD3 peptide injected into 300 uL of 32.7 uM Ct PCNA; 25°C; 50 mM Tris-HCl, 150 mM NaCl, pH 8.0; duplicate; single site model (1 peptide: 1 PCNA protomer)
recorded.metric: Kd (µM)
# value in µM; strip the unit string

I have this binder here, GKGGQGSIMSWFAKK [Ct PolD3 PIP peptide (15mer, residues 437-451)] , and I need its recorded Kd.
43.2
